- Method Description: Cytotoxicity against human HepG2(2.2.15) cells by MTT assay
- Format: cell-based
- Assay Setup: HepG2(2.2.15) cells
Kindly state log10 of CC50 for each of the entries shown.
Recall that a logarithmic scale is used here: each number is log10 of CC50 in µM.

Smiles Structure	log10 of CC50
CC(=O)[C@]1(O)CC[C@@]2(O)[C@]1(C)[C@H](OC(=O)/C=C(\C)C(C)C)C[C@@H]1[C@@]3(C)CC[C@H](OC(=O)c4cnccn4)CC3=CC[C@]12O	1.79

Give log10 of CC50 for all molecules that follow.
1. CCOCC(=O)O[C@H]1CC[C@@]2(C)C(=CC[C@]3(O)[C@@H]2C[C@@H](OC(=O)/C=C(\C)C(C)C)[C@@]2(C)[C@]3(O)CC[C@@]2(O)C(C)=O)C1
2. CC(=O)[C@]1(O)CC[C@@]2(O)[C@]1(C)[C@H](OC(=O)/C=C(\C)C(C)C)C[C@@H]1[C@@]3(C)CC[C@H](OC(=O)c4ccnn4C)CC3=CC[C@]12O
3. CC(=O)[C@]1(O)CC[C@@]2(O)[C@]1(C)[C@H](OC(=O)/C=C(\C)C(C)C)C[C@@H]1[C@@]3(C)CC[C@H](OC(=O)CC#N)CC3=CC[C@]12O
4. CC(=O)[C@]1(O)CC[C@@]2(O)[C@]1(C)[C@H](OC(=O)/C=C(\C)C(C)C)C[C@@H]1[C@@]3(C)CC[C@H](OC(=O)C(C#N)=C(C)C)CC3=CC[C@]12O

A.
2.06
1.00
2.09
2.66

Q. Quick one: log10 of CC50 for CC(=O)[C@]1(O)CC[C@@]2(O)[C@]1(C)[C@H](OC(=O)/C=C(\C)C(C)C)C[C@@H]1[C@@]3(C)CC[C@H](OC(=O)CCCC(=O)O)CC3=CC[C@]12O ?
A. 2.49

----------
- System: Hepatitis B virus
- Method Description: Selectivity ratio of CC50 for human HepG2(2.2.15) cells to IC50 for Hepatitis B virus infected in human HepG2.2.15 cells assessed as suppression of HBsAg secretion
- Format: cell-based
- Assay Setup: read-out: Ratio CC50/IC50
Quantity Name: selectivity ratio
Numbers only.

Completed entries (count: 4):
Smiles Structure	Test Target	selectivity ratio
CC(=O)[C@]1(O)CC[C@@]2(O)[C@]1(C)[C@H](OC(=O)/C=C(\C)C(C)C)C[C@@H]1[C@@]3(C)CC[C@H](OC(=O)c4cccnc4)CC3=CC[C@]12O	Hepatitis B virus	2.4
CC(=O)N1CCC[C@H]1C(=O)O[C@H]1CC[C@@]2(C)C(=CC[C@]3(O)[C@@H]2C[C@@H](OC(=O)/C=C(\C)C(C)C)[C@@]2(C)[C@]3(O)CC[C@@]2(O)C(C)=O)C1	Hepatitis B virus	1.5
CC(=O)[C@]1(O)CC[C@@]2(O)[C@]1(C)[C@H](OC(=O)/C=C(\C)C(C)C)C[C@@H]1[C@@]3(C)CC[C@H](OC(=O)c4cccnc4)CC3=CC[C@]12OC(=O)c1cccnc1	Hepatitis B virus	1.8
CCOCC(=O)O[C@H]1CC[C@@]2(C)C(=CC[C@]3(O)[C@@H]2C[C@@H](OC(=O)/C=C(\C)C(C)C)[C@@]2(C)[C@]3(O)CC[C@@]2(O)C(C)=O)C1	Hepatitis B virus	1.7

Now consider a different molecule.
Q. Param item = CC(=O)[C@]1(O)CC[C@@]2(O)[C@]1(C)[C@H](OC(=O)/C=C(\C)C(C)C)C[C@@H]1[C@@]3(C)CC[C@H](OC(=O)CC#N)CC3=CC[C@]12O ; retrieve measured selectivity ratio.
A. 1.2

----------
- Method Description: Cytotoxicity against human HepG2(2.2.15) cells by MTT assay
- Assay type: cell-based
- Assay Setup: HepG2(2.2.15) cells
Quantity Name: CC50 (µM)
Numbers only, in µM.

Example results:
Smiles Structure	Obs Value
CC(=O)[C@]1(O)CC[C@@]2(O)[C@]1(C)[C@H](OC(=O)/C=C(\C)C(C)C)C[C@@H]1[C@@]3(C)CC[C@H](OC(=O)CN(C)C)CC3=CC[C@]12O	50.5
CC(=O)[C@]1(O)CC[C@@]2(O)[C@]1(C)[C@H](OC(=O)/C=C(\C)C(C)C)C[C@@H]1[C@@]3(C)CC[C@H](OC(=O)c4cc5ccccc5[nH]4)CC3=CC[C@]12O	36.7
CC(=O)[C@]1(O)CC[C@@]2(O)[C@]1(C)[C@H](OC(=O)/C=C(\C)C(C)C)C[C@@H]1[C@@]3(C)CC[C@H](OC(=O)c4cccnc4)CC3=CC[C@]12O	50.4

Look at each molecule and report its CC50.
1. COP(=O)(OC)O[C@H]1CC[C@@]2(C)C(=CC[C@]3(O)[C@@H]2C[C@@H](OC(=O)/C=C(\C)C(C)C)[C@@]2(C)[C@]3(O)CC[C@@]2(O)C(C)=O)C1
2. CC(=O)[C@]1(O)CC[C@@]2(O)[C@]1(C)[C@H](OC(=O)/C=C(\C)C(C)C)C[C@@H]1[C@@]3(C)CC[C@H](OC(=O)c4cccnc4)CC3=CC[C@]12OC(=O)c1cccnc1

A.
560
350

----------
- Method Description: Cytotoxicity against human HepG2(2.2.15) cells by MTT assay
- Assay type: cell-based
- Assay Setup: HepG2(2.2.15) cells
Would you mind telling me the reported CC50 of each entry?
Answers are plain numbers, in µM.

Smiles Structure	CC50 [µM]
CC(=O)N1CCC[C@H]1C(=O)O[C@H]1CC[C@@]2(C)C(=CC[C@]3(O)[C@@H]2C[C@@H](OC(=O)/C=C(\C)C(C)C)[C@@]2(C)[C@]3(O)CC[C@@]2(O)C(C)=O)C1	106
CC(=O)[C@]1(O)CC[C@@]2(O)[C@]1(C)[C@H](OC(=O)/C=C(\C)C(C)C)C[C@@H]1[C@@]3(C)CC[C@H](OC(=O)COc4ccccc4)CC3=CC[C@]12O	319

As a next step, examine the molecule that follows.
Q. Look up CC50 for this molecule: COCC(=O)O[C@H]1CC[C@@]2(C)C(=CC[C@]3(O)[C@@H]2C[C@@H](OC(=O)/C=C(\C)C(C)C)[C@@]2(C)[C@]3(O)CC[C@@]2(O)C(C)=O)C1
A. 102

----------
- Tested on: Hepatitis B virus
- Method Description: Selectivity ratio of CC50 for human HepG2(2.2.15) cells to IC50 for Hepatitis B virus infected in human HepG2(2.2.15) cells assessed as inhibition of viral replication
- Format: cell-based
- Assay Setup: read-out: Ratio CC50/IC50
Quantity Name: selectivity ratio

Smiles Structure	selectivity ratio
COP(=O)(OC)O[C@H]1CC[C@@]2(C)C(=CC[C@]3(O)[C@@H]2C[C@@H](OC(=O)/C=C(\C)C(C)C)[C@@]2(C)[C@]3(O)CC[C@@]2(O)C(C)=O)C1	5.3

# batch size: 2; output selectivity ratio per entry
1. CC(=O)[C@]1(O)CC[C@@]2(O)[C@]1(C)[C@H](OC(=O)/C=C(\C)C(C)C)C[C@@H]1[C@@]3(C)CC[C@H](OC(=O)CCCC(=O)O)CC3=CC[C@]12O
2. CC(=O)[C@]1(O)CC[C@@]2(O)[C@]1(C)[C@H](OC(=O)/C=C(\C)C(C)C)C[C@@H]1[C@@]3(C)CC[C@H](O)CC3=CC[C@]12O

A.
[1.1, 6]

----------
- Method Description: Cytotoxicity against human HepG2(2.2.15) cells by MTT assay
- Assay type: cell-based
- Assay Setup: HepG2(2.2.15) cells
Would you kindly list CC50 for each of these molecules?

Batch request: CC50 per item, same order as input.
1. COCC(=O)O[C@H]1CC[C@@]2(C)C(=CC[C@]3(O)[C@@H]2C[C@@H](OC(=O)/C=C(\C)C(C)C)[C@@]2(C)[C@]3(O)CC[C@@]2(OC(=O)COC)C(C)=O)C1
2. CC(=O)[C@]1(OC(=O)/C=C/c2cc(F)cc(F)c2)CC[C@@]2(O)[C@]1(C)[C@H](OC(=O)/C=C(\C)C(C)C)C[C@@H]1[C@@]3(C)CC[C@H](OC(=O)/C=C/c4cc(F)cc(F)c4)CC3=CC[C@]12O
3. CC(=O)[C@]1(OC(=O)/C=C/c2ccc3c(c2)OCO3)CC[C@@]2(O)[C@]1(C)[C@H](OC(=O)/C=C(\C)C(C)C)C[C@@H]1[C@@]3(C)CC[C@H](OC(=O)/C=C/c4ccc5c(c4)OCO5)CC3=CC[C@]12O
4. CC(=O)[C@]1(OC(=O)/C=C/c2ccccc2Cl)CC[C@@]2(O)[C@]1(C)[C@H](OC(=O)/C=C(\C)C(C)C)C[C@@H]1[C@@]3(C)CC[C@H](OC(=O)/C=C/c4ccccc4Cl)CC3=CC[C@]12O

A.
["> 1400 µM", "> 1580 µM", "> 1020 µM", "> 538 µM"]
